Ref: paper PMC5074076

Exercise: state measured Apparent Freab’ for each of the compounds provided.
- assay.protocol: Observed clearance ratio and fraction reabsorbed (Freab, Freab′) calculated from CLR, fu,p and GFR
- assay.context: calculated from observed CLR, fu,p and GFR
Give bare numbers.

INSERT INTO results (compound, experimental_value) VALUES
  ('CN(C)[C@@H]1C(O)=C(C(N)=O)C(=O)[C@@]2(O)C(O)=C3C(=O)c4c(O)cccc4[C@@](C)(O)[C@H]3C[C@@H]12 [Tetracycline]', 0.053),
  ('CCCN1CCCC[C@H]1C(=O)Nc1c(C)cccc1C [Ropivacaine]', 0.552),
  ('CCCNC(=O)NS(=O)(=O)c1ccc(Cl)cc1 [Chlorpropamide]', 0.915),
  ('NC(=O)c1ncn([C@@H]2O[C@H](CO)[C@@H](O)[C@H]2O)n1 [Ribavirin]', 0.085),
  ('Cc1c(F)c(N2CCNC(C)C2)cc2c1c(=O)c(C(=O)O)cn2C1CC1 (stereo not drawn) [Grepafloxacin]', 0.353);

Next up:
INPUT: Suppose we examine the compound Cn1c(=O)c2c(ncn2C)n(C)c1=O [Caffeine] ; what Apparent Freab’ value has been reported?
OUTPUT: 0.995

###

For each entry below, report its Papp,ref,calibrated value.
- assay.protocol: Papp-Freab′ calibration of Caco-2 Papp with reference drugs and CLR prediction
- Design: species or system human
- assay.context: reference drugs; calibrated Caco-2 Papp after Hill equation fitting

Batch request: Papp,ref,calibrated per item, same order as input.
1. CCCNC(=O)NS(=O)(=O)c1ccc(Cl)cc1 [Chlorpropamide]
2. C=CCOc1ccccc1OCC(O)CNC(C)C (stereo not shown) [Oxprenolol]
3. C[C@@H](c1ncncc1F)[C@](O)(Cn1cncn1)c1ccc(F)cc1F [Voriconazole]
4. CN(C)[C@@H]1C(O)=C(C(N)=O)C(=O)[C@@]2(O)C(O)=C3C(=O)c4c(O)cccc4[C@@](C)(O)[C@H]3[C@H](O)[C@@H]12 [Oxytetracycline]
5. C[C@@H]1CN(c2c(F)c(N)c3c(=O)c(C(=O)O)cn(C4CC4)c3c2F)C[C@H](C)N1 [Sparfloxacin]
6. NC(=O)c1ncn([C@@H]2O[C@H](CO)[C@@H](O)[C@H]2O)n1 [Ribavirin]
7. Cc1cccc(C)c1NC(=O)C(C)N (stereo not shown) [Tocainide]

OUTPUT:
111.60 × 10^− 6 cm/s
12.00 × 10^− 6 cm/s
134.68 × 10^− 6 cm/s
0.01 × 10^− 6 cm/s
34.35 × 10^− 6 cm/s
0.03 × 10^− 6 cm/s
4.68 × 10^− 6 cm/s

###

- assay.protocol: Caco-2 apparent permeability (Papp), apical to basolateral, pH 6.5-7.4 gradient, efflux inhibitor cocktail
- assay.context: human, Caco-2, pH 6.5
Assign class by Papp A→B at 2 h: not lower than 60 ×10⁻⁶ cm/s means Criterion met; lower than 60 ×10⁻⁶ cm/s means Criterion not met.

The following compounds have reported results that may help.
INSERT INTO assay_data (compound, label_value) VALUES
  ('CN1CCN(c2cc3c(cc2F)c(=O)c(C(=O)O)cn3-c2ccc(F)cc2)CC1 [Difloxacin]', 'Criterion met'),
  ('CCN(CC)CCCN(c1ccccc1)C1Cc2ccccc2C1 [Aprindine]', 'Criterion not met'),
  ('O=C(NCCN1CCOCC1)c1ccc(Cl)cc1 [Moclobemide]', 'Criterion met'),
  ('Cc1cccc(C)c1NC(=O)C(C)N (stereo not drawn) [Tocainide]', 'Criterion not met');

INPUT: Has Cc1c(F)c(N2CCNC(C)C2)cc2c1c(=O)c(C(=O)O)cn2C1CC1 (stereo not drawn) [Grepafloxacin] a recorded Papp A→B at 2 h greater than or equal to 60 ×10⁻⁶ cm/s?
OUTPUT: Criterion met

INPUT: Dear colleague, could you confirm whether Nc1ccc(S(=O)(=O)c2ccc(N)cc2)cc1 [Dapsone] has Papp A→B at 2 h at or above 60 ×10⁻⁶ cm/s?
OUTPUT: Criterion not met

INPUT: Could you please find out whether Cc1ncc([N+](=O)[O-])n1CCO [Metronidazole] has Papp A→B at 2 h that meets 60 ×10⁻⁶ cm/s or exceeds it?
OUTPUT: Criterion met

INPUT: Check the entry CN(C)[C@@H]1C(O)=C(C(N)=O)C(=O)[C@@]2(O)C(O)=C3C(=O)c4c(O)cccc4[C@@](C)(O)[C@H]3[C@H](O)[C@@H]12 [Oxytetracycline] : does Papp A→B at 2 h equal or exceed 60 ×10⁻⁶ cm/s?
OUTPUT: Criterion not met

INPUT: Does CCCCC1=NC2(CCCC2)C(=O)N1Cc1ccc(-c2ccccc2-c2nnn[nH]2)cc1 [Irbesartan] have a reported Papp A→B at 2 h of at least 60 ×10⁻⁶ cm/s?
OUTPUT: Criterion not met

###

- assay.protocol: Observed clearance ratio and fraction reabsorbed (Freab, Freab′) calculated from CLR, fu,p and GFR
- assay.context: observed/apparent; 1 - CLR/(GFR x fu,p), GFR 120 mL/min
experimental.endpoint: Freab
One number for each entry.

In the examples that follow, each entry is paired with its recorded Freab.
INSERT INTO measurements (compound, experimental_value) VALUES
  ('CN(C)[C@@H]1C(O)=C(C(N)=O)C(=O)[C@@]2(O)C(O)=C3C(=O)c4c(O)cccc4[C@@](C)(O)[C@H]3[C@H](O)[C@@H]12 [Oxytetracycline]', 0.02),
  ('C[C@]12C=CC(=O)C=C1CC[C@@H]1[C@@H]2C(=O)C[C@@]2(C)[C@H]1CC[C@]2(O)C(=O)CO [Prednisone]', 0.30),
  ('C[C@]12C=CC(=O)C=C1CC[C@@H]1[C@@H]2[C@@H](O)C[C@@]2(C)[C@H]1CC[C@]2(O)C(=O)CO [Prednisolone]', 0.10),
  ('Cc1cc(NC(=O)C2=C(O)c3ccccc3S(=O)(=O)N2C)no1 [Isoxicam]', 1.00);

Can you give me Freab for all of these, one by one?
1. CC[C@@H](C(N)=O)N1CCCC1=O [Levetiracetam]
2. CCCNC(=O)NS(=O)(=O)c1ccc(Cl)cc1 [Chlorpropamide]
3. OC(Cn1cncn1)(Cn1cncn1)c1ccc(F)cc1F [Fluconazole]
4. CC(C)NCC(O)COc1ccc(CCOCC2CC2)cc1 (centres unmarked) [Betaxolol]

OUTPUT:
0.64
0.91
0.85
0.08

###

- assay.protocol: Observed clearance ratio and fraction reabsorbed (Freab, Freab′) calculated from CLR, fu,p and GFR
- assay.context: observed/apparent; 1 - CLR/(GFR x fu,p), GFR 120 mL/min
Please provide measured Freab for the entries that follow.

Batch of 8 compounds: report Freab for each.
1. NCC1(CC(=O)O)CCCCC1
2. NC(=O)c1ncn([C@@H]2O[C@H](CO)[C@@H](O)[C@H]2O)n1
3. C[C@H]1C[C@H]2[C@@H]3CCC4=CC(=O)C=C[C@]4(C)[C@@]3(F)[C@@H](O)C[C@]2(C)[C@@]1(O)C(=O)CO
4. CN1CCN(c2cc3c(cc2F)c(=O)c(C(=O)O)cn3-c2ccc(F)cc2)CC1
5. CN(C)[C@@H]1C(O)=C(C(N)=O)C(=O)[C@@]2(O)C(O)=C3C(=O)c4c(O)cccc4[C@@](C)(O)[C@H]3C[C@@H]12
6. Cn1c(=O)c2c(ncn2C)n(C)c1=O
7. C=CCOc1ccccc1OCC(O)CNC(C)C (centres unmarked)
8. Cc1ncc([N+](=O)[O-])n1CCO

OUTPUT:
0.18
0.08
0.78
0.94
0.05
0.99
0.44
0.92

Dear colleague, could you please provide Freab for the compounds listed below?
1. CCCN1CCCC[C@H]1C(=O)Nc1c(C)cccc1C
2. CN(C)CCC=C1c2ccccc2COc2ccccc21 [Doxepin]
3. CCCCC1=NC2(CCCC2)C(=O)N1Cc1ccc(-c2ccccc2-c2nnn[nH]2)cc1

OUTPUT:
1: 0.55; 2: 0.64; 3: 0.62

###

- assay.protocol: physchem
- assay.context: pH 7.4
experimental.endpoint: logD
One number for each entry.

INSERT INTO measurements (molecule, experimental_value) VALUES
  ('COc1ccc(C(CN(C)C)C2(O)CCCCC2)cc1 (centres unmarked) [Venlafaxine]', 0.95);

Please examine the following record next.
INPUT: Would you mind telling me what logD value was observed for CCCN1CCCC[C@H]1C(=O)Nc1c(C)cccc1C [Ropivacaine] ?
OUTPUT: 2.1

###

- assay.protocol: Ionisation classification at pH 6.5 from pKa
- Type: physicochemical
- assay.context: predominant species (> 50%) at pH 6.5 from measured or calculated pKa
experimental.endpoint: Ionisation at pH 6.5

INSERT INTO results (molecule, experimental_endpoint, experimental_value) VALUES
  ('C[C@@H]1CN(c2c(F)c(N)c3c(=O)c(C(=O)O)cn(C4CC4)c3c2F)C[C@H](C)N1 [Sparfloxacin]', 'Ionisation at pH 6.5', 'Zwitterion'),
  ('CC(C)NCC(O)COc1ccc(CC(N)=O)cc1 (centres unmarked) [Atenolol]', 'Ionisation at pH 6.5', 'Base'),
  ('CCCN1CCCC[C@H]1C(=O)Nc1c(C)cccc1C [Ropivacaine]', 'Ionisation at pH 6.5', 'Base'),
  ('COc1c(N2C[C@@H]3CCCN[C@@H]3C2)c(F)cc2c(=O)c(C(=O)O)cn(C3CC3)c12 [Moxifloxacin]', 'Ionisation at pH 6.5', 'Zwitterion');
